Biological target: T1, EsCas13d, nuclease-dead (Eubacterium siraeum, UniProt B0MS50, R295A;H300A;R849A;H854A)
T1 sequence: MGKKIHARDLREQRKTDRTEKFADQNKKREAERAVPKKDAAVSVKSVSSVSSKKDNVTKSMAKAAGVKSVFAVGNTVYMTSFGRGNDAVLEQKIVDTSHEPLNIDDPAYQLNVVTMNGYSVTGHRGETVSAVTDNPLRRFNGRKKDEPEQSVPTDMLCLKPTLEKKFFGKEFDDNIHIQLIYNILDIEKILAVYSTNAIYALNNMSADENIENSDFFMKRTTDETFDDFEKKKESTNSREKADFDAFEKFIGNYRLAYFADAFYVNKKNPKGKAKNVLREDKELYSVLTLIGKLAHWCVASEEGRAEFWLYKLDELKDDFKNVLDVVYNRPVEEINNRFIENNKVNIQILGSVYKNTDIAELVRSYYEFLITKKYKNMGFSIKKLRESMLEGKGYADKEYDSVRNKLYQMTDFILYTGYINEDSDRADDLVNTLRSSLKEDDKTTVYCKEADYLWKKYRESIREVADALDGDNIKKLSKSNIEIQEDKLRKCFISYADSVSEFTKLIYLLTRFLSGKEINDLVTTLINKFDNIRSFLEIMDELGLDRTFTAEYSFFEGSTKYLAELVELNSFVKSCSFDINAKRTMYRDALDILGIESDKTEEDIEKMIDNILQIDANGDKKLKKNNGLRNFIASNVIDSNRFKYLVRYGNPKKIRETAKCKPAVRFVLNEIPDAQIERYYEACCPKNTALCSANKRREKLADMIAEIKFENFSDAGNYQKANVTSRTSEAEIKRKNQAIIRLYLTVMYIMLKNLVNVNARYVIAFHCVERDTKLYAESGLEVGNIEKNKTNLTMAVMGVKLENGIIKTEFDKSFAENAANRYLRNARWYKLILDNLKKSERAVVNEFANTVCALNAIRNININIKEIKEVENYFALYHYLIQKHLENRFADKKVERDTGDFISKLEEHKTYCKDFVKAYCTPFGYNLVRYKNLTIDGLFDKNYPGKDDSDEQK
Assay: crRNA (strand 1, pre-loaded); Mg2+; 40 mM Tris-HCl pH 7.5, 150 mM NaCl, 6 mM MgCl2, 1 mM DTT, 0.1% Tween-20, 0.2 mg/ml BSA; 25 C; 10 min per concentration, then washed
Conditions: tags: His6-TwinStrep-SUMO cleaved; N-terminal SNAP kept (SNAP-Surface 488); label: 3' end held by stalled T7 RNA polymerase
What Kd was measured for each of the following?
One number for each entry, in nM.

Solved cases below.
target 2 MT 5'PFS GAU 3'PFS ACG (mixed) RNA 1: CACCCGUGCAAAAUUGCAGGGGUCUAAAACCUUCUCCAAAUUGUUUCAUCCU RNA 2: GGGAAUGGAUCCACAUCUACGAAUUCGAUAGGAUGAAACAAUUUGGAGAAGACGAGAUCGGAAGAGCACACGU
17.2
target 1 insG 3' of 16,insC 3' of 9 (mixed) RNA 1: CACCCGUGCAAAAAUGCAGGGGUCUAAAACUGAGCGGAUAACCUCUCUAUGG RNA 2: GGGAAUGGAUCCACAUCUACGAAUUCGUACCAUAGAGGAGGUUACUCCGCUCACCGAGAUCGGAAGAGCACACGU
23.4
target 1 insC 3' of 20,insC 3' of 17 (mixed) RNA 1: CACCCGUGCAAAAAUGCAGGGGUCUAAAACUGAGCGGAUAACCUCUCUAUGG RNA 2: GGGAAUGGAUCCACAUCUACGAAUUCGUACCACUAGCAGAGGUUAUCCGCUCACCGAGAUCGGAAGAGCACACGU
4.9
target 2 MT 5'PFS GAA 3'PFS CUG (mixed) RNA 1: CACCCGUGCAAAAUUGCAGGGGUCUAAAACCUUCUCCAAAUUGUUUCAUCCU RNA 2: GGGAAUGGAUCCACAUCUACGAAUUCGAAAGGAUGAAACAAUUUGGAGAAGCUGAGAUCGGAAGAGCACACGU
11.2
target 1 MT 5'PFS GGC 3'PFS CGA (mixed) RNA 1: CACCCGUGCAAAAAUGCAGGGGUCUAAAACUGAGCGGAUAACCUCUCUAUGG RNA 2: GGGAAUGGAUCCACAUCUACGAAUUCGGCCCAUAGAGAGGUUAUCCGCUCACGAAGAUCGGAAGAGCACACGU
22
target 1 C4G,A18G (mixed) RNA 1: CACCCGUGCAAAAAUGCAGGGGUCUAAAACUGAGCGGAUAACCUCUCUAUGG RNA 2: GGGAAUGGAUCCACAUCUACGAAUUCGUACCAUGGAGAGGUUAUCCGGUCACCGAGAUCGGAAGAGCACACGU
36
target 3 insU 3' of 11,insG 3' of 2 (mixed) RNA 1: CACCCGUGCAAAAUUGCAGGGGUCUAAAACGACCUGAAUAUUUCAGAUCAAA RNA 2: GGGAAUGGAUCCACAUCUACGAAUUCGUUUUUGAUCUGAAAUUAUUCAGGUGCUGCAGAUCGGAAGAGCACACGU
42.5

Consider the binder shown here: target 2 MT 5'PFS UCU 3'PFS AUA (mixed) RNA 1: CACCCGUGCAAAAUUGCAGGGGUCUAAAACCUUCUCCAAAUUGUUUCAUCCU RNA 2: GGGAAUGGAUCCACAUCUACGAAUUCUCUAGGAUGAAACAAUUUGGAGAAGAUAAGAUCGGAAGAGCACACGU What is its recorded Kd?
9.3
